The measured values listed here are drawn from PubChem BioAssay.

method.description: caspase-8 TRAIL sensitization, hit retest, confirmation, cell-based, NB7+caspase-8, with/without TRAIL, luminescence panel (AID 651596)
setup.conditions: NB7 neuroblastoma + caspase-8, without TRAIL, luminescence viability, without TRAIL, mean of runs, at 10 µM
Give measured activity for each item. Keep answers brief.

Query: Report activity for O=C(Nc1ccc(-c2nc3ccccc3o2)cc1)C1CCCO1 (configuration not stated)
Response: 43%

Query: Report activity for `O=C(/C=C/c1cccc(F)c1)N1CCc2ccccc21`
Response: 52.8%

Query: Report activity for O=C(c1ccc(Cl)cc1)N1CCCCC(Sc2nnc(-c3ccc4c(c3)OCO4)o2)C1=O (configuration not stated)
Response: 72.6%

Query: Report activity for `CN1CCN(c2nc(-c3ccc(C(C)(C)C)cc3)nc3ccccc23)CC1`
Response: 69.6%

Query: Report activity for `CCCC(=O)Nc1ccc(C(=O)N/N=C/c2ccc[nH]2)cc1`
Response: 97.8%

Query: Report activity for OCC1OC(n2cnc3c(SCc4ccccc4)ncnc32)C(O)C1O (configuration not stated)
Response: 67.1%

Query: Report activity for Cc1ccc(C2=NN(C(=O)CCl)C(c3ccco3)C2)o1 (configuration not stated)
Response: 98.2%

Query: Report activity for `Cn1c(=NC(=O)CCl)sc2ccccc21`
Response: 98.7%

Query: Report activity for `O=C(C#Cc1ccccc1)c1ccccc1`
Response: 96.6%

Query: Report activity for `COc1cccc(NC(=O)c2cc3ccccc3o/c2=N\O)c1`
Response: 64.6%

Query: Report activity for `CCOc1ccc(/C=N/Nc2ccccn2)cc1`
Response: 41.2%

Query: Report activity for `CCOC(=O)Cc1csc(NC(=O)c2cc3c(s2)CCCC3)n1`
Response: 58.8%
